# Experimental target: Endothelin receptor, ET-A/ET-B (Homo sapiens) (UniProt P24530+P25101)
# Sequence (P24530 whole entry, looked up): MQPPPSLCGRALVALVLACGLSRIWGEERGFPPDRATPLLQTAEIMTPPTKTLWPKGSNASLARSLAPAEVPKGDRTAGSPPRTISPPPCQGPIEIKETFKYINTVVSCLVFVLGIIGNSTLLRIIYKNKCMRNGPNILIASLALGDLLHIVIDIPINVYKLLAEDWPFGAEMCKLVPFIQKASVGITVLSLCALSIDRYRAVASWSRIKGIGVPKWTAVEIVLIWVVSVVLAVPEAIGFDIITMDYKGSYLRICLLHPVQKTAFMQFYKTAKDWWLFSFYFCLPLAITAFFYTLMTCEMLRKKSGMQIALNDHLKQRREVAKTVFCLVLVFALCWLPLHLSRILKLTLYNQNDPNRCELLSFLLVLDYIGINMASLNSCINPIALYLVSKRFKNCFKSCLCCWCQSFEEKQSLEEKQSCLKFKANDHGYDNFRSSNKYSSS
# Sequence (P25101 whole entry, looked up): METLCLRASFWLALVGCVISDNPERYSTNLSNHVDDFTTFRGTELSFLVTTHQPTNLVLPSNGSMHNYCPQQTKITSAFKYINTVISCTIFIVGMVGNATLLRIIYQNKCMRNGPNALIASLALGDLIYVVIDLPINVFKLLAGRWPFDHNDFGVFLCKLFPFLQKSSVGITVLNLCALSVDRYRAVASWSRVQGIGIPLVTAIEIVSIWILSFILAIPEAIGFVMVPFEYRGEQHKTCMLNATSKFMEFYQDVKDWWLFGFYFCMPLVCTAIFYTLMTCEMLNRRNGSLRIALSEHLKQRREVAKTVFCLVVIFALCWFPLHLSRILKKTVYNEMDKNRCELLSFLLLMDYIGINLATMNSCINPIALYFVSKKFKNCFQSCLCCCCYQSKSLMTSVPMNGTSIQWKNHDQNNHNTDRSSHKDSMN
# Test description: Selectivity was calculated as the ratio of IC50 of Endothelin B receptor / IC50 of Endothelin A receptor
# Type: protein assay
Endpoint name: Ratio

Reference set, count: 2
Molecule	Ratio
CCOCc1ccc2c(n1)[C@@H](c1ccc(OC)cc1)[C@H](C(=O)O)C2c1ccc2c(c1)OCO2 (single isomer, unassigned)	270
COc1ccc([C@@H]2c3nc(N(C)C(C)C)ccc3C(c3ccc4c(c3)OCO4)[C@H]2C(=O)O)cc1 (single isomer, unassigned)	4.4

[P] CCNCc1ccc2c(n1)[C@@H](c1ccc(OC)cc1)[C@H](C(=O)O)C2c1ccc2c(c1)OCO2 (single isomer, unassigned)
[Q] CCCc1ccc2c(n1)[C@@H](c1ccc(OC)cc1)[C@H](C(=O)O)[C@H]2c1ccc2c(c1)OCO2
[R] COc1ccc([C@@H]2c3nc(-c4ccccc4)ccc3C(c3ccc4c(c3)OCO4)[C@H]2C(=O)O)cc1 (single isomer, unassigned)
[S] COc1ccc([C@@H]2c3nc(NC(C)C)ccc3C(c3ccc4c(c3)OCO4)[C@H]2C(=O)O)cc1 (single isomer, unassigned)
Sequence the entries by Ratio, beginning with the highest number. Please respond with the labels ordered as the question requires.
S, P, Q, R
(S: 420, P: 130, Q: 81, R: 8.7)
